- target_of_assay: NK2 (Homo sapiens, UniProt P21452)
- Sequence (P21452 1-398): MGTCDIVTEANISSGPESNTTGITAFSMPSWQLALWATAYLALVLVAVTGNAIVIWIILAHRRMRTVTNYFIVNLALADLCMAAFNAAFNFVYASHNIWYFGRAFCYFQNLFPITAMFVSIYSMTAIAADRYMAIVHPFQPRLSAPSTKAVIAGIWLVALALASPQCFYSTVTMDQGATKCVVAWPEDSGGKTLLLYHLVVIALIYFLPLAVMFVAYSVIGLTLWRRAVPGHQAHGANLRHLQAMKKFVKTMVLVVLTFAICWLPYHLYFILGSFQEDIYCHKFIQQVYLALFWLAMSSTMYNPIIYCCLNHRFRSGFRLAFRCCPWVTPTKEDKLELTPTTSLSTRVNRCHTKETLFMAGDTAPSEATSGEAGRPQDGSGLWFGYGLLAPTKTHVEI
- experimental_protocol: Signal transduction (ST), intracellular Ca++ (FLIPR), NK2
- Assay type: cell-based
- recorded_conditions: read-out: pIC50 NK2 (converted)
Listed here are compounds together with their documented IC50.
# number only, unit µM dropped from output

Answered examples (4):
Give a short answer stating reported IC50 for O=C(c1cc(CCO)cs1)N1CCC(N2CCN([C@H]3CCN(C(=O)c4cc(C(F)(F)F)cc(C(F)(F)F)c4)[C@H](Cc4ccccc4)C3)CC2)C1 (some centres unmarked) .
3.98

Using the record for Cc1nnsc1C(=O)N1CCC(N2CCN(C3CCN(C(=O)c4cc(C(F)(F)F)cc(C(F)(F)F)c4)C(Cc4ccc(F)c(F)c4)C3)CC2)C1 (single isomer, unassigned) , state its measured IC50.
0.398

Using known records, supply IC50 for O=C(c1ccoc1)N1CCC(N2CCN(C3CCN(C(=O)c4cc(C(F)(F)F)cc(C(F)(F)F)c4)C(Cc4ccccc4)C3)CC2)C1 (single isomer, unassigned) [Compound 32]
5.01

Retrieve IC50 measured for O=C(c1cc(C(F)(F)F)cc(C(F)(F)F)c1)N1CC[C@H](N2CCN(C3CCN(S(=O)(=O)c4sccc4CO)C3)CC2)C[C@H]1Cc1ccccc1 (some centres unmarked) and print it.
0.2

---
Indicate its recorded IC50; the compound in question is O=C(C1CCCCC1)N1CCC(N2CCN(C3CCN(C(=O)c4cc(C(F)(F)F)cc(C(F)(F)F)c4)C(Cc4ccccc4)C3)CC2)C1 (single isomer, unassigned)
2.51

###

- target_of_assay: NK3 (Homo sapiens, UniProt P29371)
- Sequence (P29371 whole entry): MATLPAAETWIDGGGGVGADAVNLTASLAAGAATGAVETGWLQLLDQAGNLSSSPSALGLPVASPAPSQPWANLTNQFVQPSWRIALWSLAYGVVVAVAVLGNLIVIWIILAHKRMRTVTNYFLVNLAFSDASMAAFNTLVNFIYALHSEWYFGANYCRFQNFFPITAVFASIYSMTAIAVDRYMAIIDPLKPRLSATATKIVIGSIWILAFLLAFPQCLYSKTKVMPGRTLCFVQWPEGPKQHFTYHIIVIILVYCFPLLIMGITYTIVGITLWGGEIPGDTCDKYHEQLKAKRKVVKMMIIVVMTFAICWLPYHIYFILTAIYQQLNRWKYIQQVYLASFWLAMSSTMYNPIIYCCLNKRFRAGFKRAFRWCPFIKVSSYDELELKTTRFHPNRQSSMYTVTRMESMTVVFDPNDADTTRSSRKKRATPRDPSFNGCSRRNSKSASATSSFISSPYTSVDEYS
- experimental_protocol: Signal transduction (ST), intracellular Ca++ (FLIPR), NK3
- Assay type: cell-based
- recorded_conditions: read-out: pIC50 NK3 (converted)
Reported IC50 values are given for each entry in this list.
Output spec: scalar in nM, unitless text.

State its IC50: O=C(C1CC1)N1CCC(N2CCN([C@H]3CCN(C(=O)c4cc(C(F)(F)F)cc(C(F)(F)F)c4)[C@H](Cc4ccccc4)C3)CC2)C1 (some centres unmarked)
794

Please indicate IC50 recorded for O=C(c1cc(C(F)(F)F)cc(C(F)(F)F)c1)N1CCC(N2CCN(C3CCN(Cc4ccccc4)C3)CC2)CC1Cc1cc(Cl)cc(Cl)c1 (centres unmarked)
2510

Further cases:
For the compound O=C(c1ccsc1)N1CCC(N2CCN(C3CCN(C(=O)c4cc(C(F)(F)F)cc(C(F)(F)F)c4)C(Cc4ccc(F)c(F)c4)C3)CC2)C1 (single isomer, unassigned) [Compound 238] , give its measured IC50 value.
158

Indicate its recorded IC50; the compound in question is Cc1ccc(C(=O)N2CCC(N3CCN([C@H]4CCN(C(=O)c5cc(C(F)(F)F)cc(C(F)(F)F)c5)[C@H](Cc5ccccc5)C4)CC3)C2)s1 (some centres unmarked)
631

Give recorded IC50. Cc1nnsc1C(=O)N1CCC(N2CCN(C3CCN(C(=O)c4cc(C(F)(F)F)cc(C(F)(F)F)c4)C(Cc4ccccc4)C3)CC2)C1 (single isomer, unassigned) [Compound 381]
2510
